Entries with their measured pIC50, system Human VEGFR-2 (KDR) (Homo sapiens, UniProt P35968):
pIC50 here is simply -log10 of the concentration when that concentration is written in mol/L.

CC(=O)c1cc(F)cc([N+](=O)[O-])c1OS(=O)(=O)c1ccccc1F [Compound 2a]    4.54
CC(=O)c1cc(Cl)cc([N+](=O)[O-])c1OS(=O)(=O)c1ccc(C(F)(F)F)cc1 [Compound 2j]    4.68
CC(=O)c1cc(Cl)cc([N+](=O)[O-])c1OS(=O)(=O)c1ccc(OC(F)(F)F)cc1 [Compound 2k]    4.58

Request: Respond only with pIC50 recorded for CC(=O)c1cc(C)cc([N+](=O)[O-])c1OS(=O)(=O)c1ccc(C(F)(F)F)cc1 [Compound 2v]
Response: 4.79

###

Molecular target: PTP1B (Homo sapiens)
Sequence (P18031 3-277 limits assumed): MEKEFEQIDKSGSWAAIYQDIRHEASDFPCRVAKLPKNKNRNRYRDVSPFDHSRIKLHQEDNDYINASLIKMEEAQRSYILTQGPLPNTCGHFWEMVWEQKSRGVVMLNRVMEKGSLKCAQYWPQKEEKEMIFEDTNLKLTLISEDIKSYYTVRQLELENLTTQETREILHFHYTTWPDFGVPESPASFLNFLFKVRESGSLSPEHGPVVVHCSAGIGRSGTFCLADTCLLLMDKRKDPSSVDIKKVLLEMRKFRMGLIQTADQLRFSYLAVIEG
parameter: pIC50
Remember, pIC50 is on a log scale: it is -log10 of the molar concentration.

CC(=O)c1cc(C)cc([N+](=O)[O-])c1OS(=O)(=O)c1ccc(C(F)(F)F)cc1 [Compound 2v]    5.12

From here, focus on the item given below.
Request: Report pIC50, nothing else, for this compound: COc1ccc(S(=O)(=O)Oc2c(C(C)=O)cc(C)cc2[N+](=O)[O-])cc1 [Compound 2x]
Response: 4.67

###

Sequence of the target: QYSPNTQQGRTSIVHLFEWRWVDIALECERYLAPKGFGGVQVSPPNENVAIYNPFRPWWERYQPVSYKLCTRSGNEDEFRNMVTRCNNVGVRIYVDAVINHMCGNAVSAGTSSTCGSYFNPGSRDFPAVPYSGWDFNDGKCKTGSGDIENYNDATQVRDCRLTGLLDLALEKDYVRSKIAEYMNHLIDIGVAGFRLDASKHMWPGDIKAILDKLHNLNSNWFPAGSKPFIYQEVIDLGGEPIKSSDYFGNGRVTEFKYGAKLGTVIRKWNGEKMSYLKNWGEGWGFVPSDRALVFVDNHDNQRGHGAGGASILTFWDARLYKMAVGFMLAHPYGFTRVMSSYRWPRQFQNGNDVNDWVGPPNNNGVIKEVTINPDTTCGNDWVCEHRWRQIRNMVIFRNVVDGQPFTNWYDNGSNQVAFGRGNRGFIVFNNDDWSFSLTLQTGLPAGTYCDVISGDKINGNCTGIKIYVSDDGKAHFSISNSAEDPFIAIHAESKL
Attribute: pIC50
To interpret pIC50, take it as minus log10 of a concentration measured in moles per litre.

Record excerpt, results attached:
CC(=O)c1cc(C)cc([N+](=O)[O-])c1OS(=O)(=O)c1ccc(C(F)(F)F)cc1    5.22
CC(=O)c1cc(Cl)cc([N+](=O)[O-])c1OS(=O)(=O)c1ccccc1F    5.15

Kindly review the next compound as well.
Request: Identify measured pIC50 associated with `CC(=O)c1cc(Cl)cc([N+](=O)[O-])c1OS(=O)(=O)c1ccc(OC(F)(F)F)cc1`
Response: 5.01

###

# maps each entry to its IC50
test system: Vero cell line; experiment: CellTiter-Blue cell viability assay, Vero; conditions: Chlorocebus sabaeus, 24 h, read-out: IC50 (µM ± SD) Vero
Expressed in µM, but write only the number.

Solved cases (2 shown):
CC(=O)c1cc(Cl)cc([N+](=O)[O-])c1OS(=O)(=O)c1ccccc1F    33.9
COc1ccc(S(=O)(=O)Oc2c(C(C)=O)cc(C)cc2[N+](=O)[O-])cc1    56.8

Request: Could you please provide reported IC50 for COC(=O)c1ccc2c(c1)NC(=O)/C2=C(\Nc1ccc(N(C)C(=O)CN2CCN(C)CC2)cc1)c1ccccc1 [Nintedanib, reference compound] ? Thanks!
Response: 0.24

Request: Quickly give me recorded IC50 for COc1cccc2c1C(=O)c1c(O)c3c(c(O)c1C2=O)C[C@@](O)(C(=O)CO)C[C@@H]3O[C@H]1C[C@H](N)[C@H](O)[C@H](C)O1 [Doxorubicin, reference compound]
Response: 0.94

Request: Provide IC50 value for the following molecule: `CC(=O)c1cc(F)cc([N+](=O)[O-])c1OS(=O)(=O)c1ccc(OC(F)(F)F)cc1`
Response: 20.8

Request: State its IC50 for this molecule: `CC(=O)c1cc(F)cc([N+](=O)[O-])c1OS(=O)(=O)c1ccccc1F`
Response: 39.2

###

system: Vero cell line; test: CellTiter-Blue cell viability assay, Vero; conditions: Chlorocebus sabaeus, 24 h, read-out: IC50 (µM ± SD) Vero
parameter: IC50 (µM)
Numeric answer only, unit µM assumed.

Record excerpt, results attached:
CC(=O)c1cc(Cl)cc([N+](=O)[O-])c1OS(=O)(=O)c1ccc(OC(F)(F)F)cc1    33.4
CC(=O)c1cc(C)cc([N+](=O)[O-])c1OS(=O)(=O)c1ccc(C(F)(F)F)cc1    48

Moving on to the next compound.
Request: Provide IC50 value for the following compound: `CC(=O)c1cc(Cl)cc([N+](=O)[O-])c1OS(=O)(=O)c1ccc(C(F)(F)F)cc1`
Response: 38.9
